All values here come from patent US20150175603A1.

- measured-on: human KAT II (hKAT II) enzyme (Homo sapiens, UniProt Q8N5Z0)
- Sequence (Q8N5Z0 30-425): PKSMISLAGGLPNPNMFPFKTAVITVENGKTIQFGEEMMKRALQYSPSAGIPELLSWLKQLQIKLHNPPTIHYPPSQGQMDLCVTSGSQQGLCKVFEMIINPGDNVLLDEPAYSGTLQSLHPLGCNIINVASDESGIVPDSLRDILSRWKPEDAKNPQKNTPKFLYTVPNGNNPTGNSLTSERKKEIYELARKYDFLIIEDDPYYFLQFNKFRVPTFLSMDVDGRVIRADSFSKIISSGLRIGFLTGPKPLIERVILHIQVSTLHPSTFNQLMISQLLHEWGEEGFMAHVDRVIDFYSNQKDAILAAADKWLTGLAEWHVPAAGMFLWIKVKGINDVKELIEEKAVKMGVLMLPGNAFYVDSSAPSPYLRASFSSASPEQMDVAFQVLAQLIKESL
- experimental-protocol: KAT II Inhibition Spectra Assay
- Type: biochemical
- protocol-conditions: single determination unless marked a (geometric mean of 2-4 determinations); decrease in OD370, L-kynurenine substrate, 37° C. for 15-20 h; hydrochloride salt; read-out: KATII IC50
Where a name gives a salt, the structure may show the parent alone.
property-label: pIC50
To interpret pIC50, take it as minus log10 of a concentration measured in moles per litre.

So for COc1cccc(Oc2ccc3c(c2)CC(N)c2n[nH]c(=O)n2-3)c1 (single isomer, unassigned; ent-1) [Example 1, hydrochloride salt] , the logged pIC50 turned out to be 6.73
